Target: hrMAO-B (Homo sapiens)
Construct: purchased Sigma–Aldrich
Sequence (P27338 1-520): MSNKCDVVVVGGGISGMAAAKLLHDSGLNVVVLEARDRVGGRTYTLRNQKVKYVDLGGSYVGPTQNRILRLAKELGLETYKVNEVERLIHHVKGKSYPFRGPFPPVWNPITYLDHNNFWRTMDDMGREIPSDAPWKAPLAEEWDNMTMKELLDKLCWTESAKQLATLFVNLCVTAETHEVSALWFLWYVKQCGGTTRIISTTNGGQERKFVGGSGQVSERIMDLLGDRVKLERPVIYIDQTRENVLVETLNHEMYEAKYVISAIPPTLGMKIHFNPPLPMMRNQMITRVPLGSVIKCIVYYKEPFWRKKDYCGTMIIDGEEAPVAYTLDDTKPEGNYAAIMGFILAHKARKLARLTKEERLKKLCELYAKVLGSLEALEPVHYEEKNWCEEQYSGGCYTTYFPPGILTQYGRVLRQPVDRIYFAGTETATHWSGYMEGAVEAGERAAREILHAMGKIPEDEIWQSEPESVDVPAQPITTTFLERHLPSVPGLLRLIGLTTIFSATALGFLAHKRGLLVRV
Assay: Inhibition of monoamine oxidase B (Amplex UltraRed, tyramine)
Format: biochemical
MEASURED_PARAMETER: IC50 (µM)

>>> reported_result("C#CCNCCc1c[nH]c2ccc(OC)cc12")
77.6
>>> reported_result("C#CCN(CC#C)CCc1c[nH]c2ccc(OC)cc12")
89.1
>>> reported_result("C#CCNCCc1c[nH]c2ccc(OC(=O)C=Cc3ccccc3)cc12")
3

Data origin, for the record: paper PMC8868346
